Would you mind telling me the reported Cmax of each entry?
assay_name: Cmax in male C57BL/6 mouse at 10 mg/kg, po measured up to 24 hrs by LC-MS/MS analysis
Type: ADME, organism-based
condition_details: in vivo
One number for each entry, in ng/mL.

These solved cases illustrate the format of a correct answer.
Cn1c(=O)n(C2CCC(=O)NC2=O)c2cccc(C#CCO[C@H]3CC[C@H](CN4CCC5(CC4)Cc4cc(NC(=O)c6cnn7cc(F)cnc67)c(N6CCC(CO)CC6)cc4O5)CC3)c21 (stereo not given in full) = 2280
Cn1c(=O)n(C2CCC(=O)NC2=O)c2cccc(C#CCO[C@H]3CC[C@H](CN4CCC5(CC4)Cc4cc(NC(=O)c6coc7cccnc67)c(N6CCC(CO)CC6)cc4O5)CC3)c21 (stereo not given in full) = 1070
Cn1c(=O)n(C2CCC(=O)NC2=O)c2cccc(C#CCO[C@H]3CC[C@H](CN4CCC5(CC4)Cc4cc(NC(=O)c6cnn7cccnc67)c(N6CCC(CO)CC6)cc4O5)CC3)c21 (stereo not given in full) = 1540

Can you give me Cmax for all of these, one by one?
1. Cn1c(=O)n(C2CCC(=O)NC2=O)c2cccc(C#CCO[C@H]3CC[C@H](CN4CCC5(CC4)Cc4cc(NC(=O)c6cnc7cccnn67)c(N6CCC(CO)CC6)cc4O5)CC3)c21 (stereo not given in full)
2. Cn1c(=O)n(C2CCC(=O)NC2=O)c2cccc(C#CCO[C@H]3CC[C@H](CN4CCC5(CC4)Cc4cc(NC(=O)c6cnn7cccnc67)c(N6CCC(O)CC6)cc4O5)CC3)c21 (stereo not given in full)

Result ::
1: 1190; 2: 3490

* * *

assay_name: Half life in cynomolgus monkey at 1 mg/kg, iv measured up to 24 hrs by LC-MS/MS analysis
Format: ADME, organism-based, Macaca fascicularis
condition_details: in vivo
experimental_endpoint: half-life (h)
Answers are plain numbers, in h.

Query :: Bench note: what half-life did Cn1c(=O)n(C2CCC(=O)NC2=O)c2cccc(C#CCO[C@H]3CC[C@H](CN4CCC5(CC4)Cc4cc(NC(=O)c6coc7cccnc67)c(N6CCC(CO)CC6)cc4O5)CC3)c21 (stereo partly specified) show?
Result :: 8.67

* * *

Would you mind telling me the reported half-life of each entry?
assay_name: Half life in male C57BL/6 mouse at 10 mg/kg, po measured up to 24 hrs by LC-MS/MS analysis
Format: ADME, organism-based
condition_details: in vivo
Numbers only, in h.

These solved cases illustrate the format of a correct answer.
Cn1c(=O)n(C2CCC(=O)NC2=O)c2cccc(C#CCO[C@H]3CC[C@H](CN4CCC5(CC4)Cc4cc(NC(=O)c6cnn7cccnc67)c(N6CCC(CO)CC6)cc4O5)CC3)c21 (stereo not given in full) = 3.7
Cn1c(=O)n(C2CCC(=O)NC2=O)c2cccc(C#CCO[C@H]3CC[C@H](CN4CCC5(CC4)Cc4cc(NC(=O)c6cnn7cccnc67)c(N6CCC(O)CC6)cc4O5)CC3)c21 (stereo not given in full) = 3.82
Cn1c(=O)n(C2CCC(=O)NC2=O)c2cccc(C#CCO[C@H]3CC[C@H](CN4CCC5(CC4)Cc4cc(NC(=O)c6coc7cccnc67)c(N6CCC(CO)CC6)cc4O5)CC3)c21 (stereo not given in full) = 4.34
Cn1c(=O)n(C2CCC(=O)NC2=O)c2cccc(C#CCO[C@H]3CC[C@H](CN4CCC5(CC4)Cc4cc(NC(=O)c6cnc7cccnn67)c(N6CCC(CO)CC6)cc4O5)CC3)c21 (stereo not given in full) = 4.4

Query :: Bench note: what half-life did Cn1c(=O)n(C2CCC(=O)NC2=O)c2cccc(C#CCO[C@H]3CC[C@H](CN4CCC5(CC4)Cc4cc(NC(=O)c6cnn7cc(F)cnc67)c(N6CCC(CO)CC6)cc4O5)CC3)c21 (stereo not given in full) show?
Result :: 4.27

Source of measurements: ChEMBL document CHEMBL6182949
